Value source: the domain aggregation screens of Martell et al. (2025)

- test_protocol: soluble fraction after stress (log2 fold change); higher = more stays soluble; pooled small domains, quantitative proteomics
- reported_conditions: stress: pH 4
Classes by soluble fraction (log2): low bin (below -0.3), mid bin (-0.3 to below -0.1), high bin (-0.1 or more)

Answered examples (3):
{"columns": ["item_sequence", "assigned_label"],
 "data": [
  ["HMDDPISSMVNRIRLAFGLSVTDLAAVLGVERPTIYSWLKDGSTPAPARLTRVRQVLSLADTW", "high bin"],
  ["HMSVPNVVGRDQVEASSLLESAGFKVSVKQSYSDSVEQGKVISQSPSGSTTVSPGSTVTITVSQ", "mid bin"],
  ["HMKHFTYEEMELMSIYDPGTREGLIANLEEMRGYLEPDETELRELTDSALEKLRELSDADYEQLELI", "low bin"]
]}

Lab log: `HMFSLDMDRLVRPGFMASGNVTFSDGVTGKWALDQMGRLALETAQKGYQPSPADVQAFQRELQQQLQRQG` — assign soluble fraction (log2) category
mid bin

Lab log: `HMRKIFPFNPNFITDQRGYFLGMSTSEIDRLHHFRAANKWIQSAQEFQVVTKVSNAWLSEFSPYFNFP` — assign soluble fraction (log2) category
high bin

Lab log: `HMGPRKAGSEATRQKILDAAEILFAERGFHSVSVRDITTEAGVDVALINYHFGSKQLLFETVFMRR` — assign soluble fraction (log2) category
low bin

Lab log: `HMSVADNALSRQAIESRIALFIQNEDPNHPRSDADIQKELAQAGVVISRRAITKYRNHLHIPSASLRRR` — assign soluble fraction (log2) category
mid bin

Lab log: `HMESFGVAIKRLREAQGWTRADFLRQLGKTGYYMHATTLKRIEEGEQIAKVHEAVIISRLFGVTVEEMG` — assign soluble fraction (log2) category
low bin

Lab log: `HMKNISSEEDREKALSLGITQEFIDNKGRYFITVPNKPSNFKEQALNIQKEISEQIDTVINKRFEF` — assign soluble fraction (log2) category
mid bin

Lab log: `HMSDPFSPTTTLKNRAKSVLSVDSFEDFKLFIKKMWQEKKEGVYQNPNVETWKDWDNISVKDAKILISLI` — assign soluble fraction (log2) category
low bin

Lab log: `HMENFIPDDPKRIEIGMSVLHQRFGKGKVMQLEGNLPDMKATVNFEGEGQKQLLLKYARLKIV` — assign soluble fraction (log2) category
high bin

Lab log: `HMTKGFSIQDISLSKSTMTFLQQNKITDLASLLSMSKSQIEGMKGFKPKMIQEIEKNLDKVGLVLAQD` — assign soluble fraction (log2) category
mid bin

----------
- test_protocol: soluble fraction after stress (log2 fold change); higher = more stays soluble; pooled small domains, quantitative proteomics
- reported_conditions: stress: pH 4
metric: soluble fraction (log2)
Give bare numbers.

Worked cases, soluble fraction (log2) given:
{"columns": ["item_sequence", "soluble fraction (log2)"],
 "data": [
  ["HMIEEIAVPEILGMQEEEAKAKIEGLGLVFNVTDRVKSNEYEKGEVMYQSVGPDDTTVKSGYPINVTISEG", -0.162],
  ["HMQYTTDEVRERVLSVLNQLLLRWIVREGKDMFNIQANAVEISEGIKGELNTELEKIGLAATGFQIDSV", -0.678],
  ["HMHPQISVEGVLPLKEAVEFVEREIISHAYSRYRATREVARHLGIDPSTVLRKAAKYGITVEPGKN", -0.372],
  ["HMKTGNPYAQRNTADMYNYGRGIEKDSYLAFVWYFAAYKQGNDNAKPQIDSITASGHLSPNQQLHAKIE", -0.304],
  ["HMAPSVNEVAWAQKIIDAHAEAAAAGKGLVVVDGKLIENLHVEEAKQLLSLSDAIAKNDASNG", -0.31]
]}

Please state, for each entry, its recorded soluble fraction (log2).
1. HMTEALEFTVEDLRMAGLVNSSFSRRRRELFSEKLGIGYGNGKSLLKKLNGYGITREEFNGAIQSLSD
2. HMVAMGQRVVPLTHLSIDDVRRLLESTYGKDSGIEVTKPGTAAKGVIVTAPRTELDGIVALVKQA
3. HMFQTAADVAYRIISQKILDGEFPPGMKLSRRKMAEVTSVSVIPVIEALKKLEEDGLVESKPQWGSFVTI

-1.3
0.0822
-0.246
